Where these numbers come from: PubChem BioAssay (NCI)

# Tested on: MDA-MB-231 breast
# EXPERIMENTAL_DETAILS: NCI-60 one-dose screen, 48 h (100 = growth as untreated, 0 = no growth, -100 = all killed)
# CONDITION_INFO: 10 µM unless noted
The panel holds about 83,000 compounds, 20% with a hit somewhere; the sample as a whole holds those more often.
Each entry falls in a class defined on growth; the bands are lower level (below 30%), middle level (30% to below 80%), upper level (80% or more)

molecule=NC(=O)OCCn1cc(-c2nc(-c3c[nH]c4ncccc34)cs2)c2ccccc21 system_tested="MDA-MB-231 breast" group="middle level"
molecule=COc1cc(Nc2c3ccc(Cl)cc3nc3ccc(OC)cc23)c2ncccc2c1 system_tested="MDA-MB-231 breast" group="middle level"
molecule=COc1cc(-c2nc3occn3c2-c2ccnc(NCCCNS(=O)(=O)c3ccccc3)n2)ccc1F system_tested="MDA-MB-231 breast" group="middle level"
molecule=Cc1cccc(-n2c(C)nc3ccc(N4CCCNC4=O)cc3c2=O)c1 system_tested="MDA-MB-231 breast" group="upper level"
molecule=Cn1cc(-c2ccc3cc(-c4ccc(CC(=O)Nc5cc(C(C)(C)C)on5)cc4)cnc3c2)cn1 system_tested="MDA-MB-231 breast" group="lower level"
molecule=COc1cccc(/C=C/C(=O)c2cc3c(N)c(C(=O)Nc4ccccc4C)sc3nc2C)c1 system_tested="MDA-MB-231 breast" group="middle level"
molecule=CC1(C)CC[C@]2(C(=O)O)CC[C@]3(C)C(=CC[C@@H]4[C@@]5(C)C[C@@H](Cc6cn([C@@H]7O[C@H](CO)[C@@H](O)[C@H](O)[C@H]7O)nn6)[C@H](O)C(C)(C)[C@@H]5CC[C@]43C)[C@@H]2C1 system_tested="MDA-MB-231 breast" group="upper level"
molecule=O=C1Nc2ccc(F)cc2/C1=N/c1nnc(Sc2ccccc2)s1 system_tested="MDA-MB-231 breast" group="upper level"
molecule="C#CC#CC#CC#CC#CC#CC#CC#CCC1OCC(COC(=O)O[C@@H](C(=O)O[C@H]2C[C@@]3(O)[C@@H](OC(=O)c4ccccc4)[C@@H]4[C@]5(OC(C)=O)CO[C@@H]5C[C@H](O)[C@@]4(C)C(=O)[C@H](OC(C)=O)C(=C2C)C3(C)C)[C@@H](NC(=O)c2ccccc2)c2ccccc2)O1 (some centres not stated)" system_tested="MDA-MB-231 breast" group="lower level"
molecule="CCN(CC)CCCC(C)Nc1ccc2cc(OC)ccc2n1 (configuration not stated)" system_tested="MDA-MB-231 breast" group="upper level"
molecule=C=CC(=O)N1CCN(c2ccc3cccc(NC(=O)c4cnc(C)cn4)c3n2)CC1 system_tested="MDA-MB-231 breast" group="middle level"
molecule=Cn1cc(-c2nc(-c3c[nH]c4ccncc34)cs2)c2cc(Br)ccc21 system_tested="MDA-MB-231 breast" group="lower level"
molecule="O=C(/C=C/C12c3ccccc3C(c3ccccc31)C1C(=O)NC(=O)C12)c1ccccn1 (configuration not stated)" system_tested="MDA-MB-231 breast" group="lower level"
molecule=CC(C)C[C@@H](C(=O)N[C@H](C(=O)OC1CCCC1)c1ccccc1)[C@H](O)C(=O)NO system_tested="MDA-MB-231 breast" group="lower level"
molecule=Cc1c(Cl)cccc1C(=O)Nc1nc2c(s1)CN(C(=O)Nc1cccc(C(F)(F)F)c1)CC2 system_tested="MDA-MB-231 breast" group="middle level"
molecule="O=C(CCC(=O)c1nc2ncccc2[nH]1)NN1C(=O)CSC1c1ccc(Cl)cc1 (configuration not stated)" system_tested="MDA-MB-231 breast" group="upper level"
